Readings of CC50 for the listed compounds
# System: LoVo-Dox
# measurement.description: SRB colorimetric assay of cell growth and viability, LoVo-Dox
# Type: cell-based, human
# particulars: LOVO-DOX; 48 hours exposure; read-out: LC50 LOVO-DOX
Where a SMILES comes first, the peptide text is derived from it. Bridges are numbered along the chain shown (N, C = ends). [ ]: non-standard residue; d: D form. The star is where a group is joined. d(aIle) = CC[C@H](C)[C@@H](N)C(=O)O; d(aThr) = C[C@@H](O)[C@@H](N)C(=O)O; Hexanoyl(5-Me) = CC(C)CCCC(=O)*; Orn = NCCC[C@H](N)C(=O)O; Dhb = C/C=C(\N)C(=O)O

compound	CC50 / µM
C/C=C1\NC(=O)[C@H](Cc2ccc(Cl)cc2)NC(=O)[C@@H](C(C)C)NC(=O)[C@@H]([C@@H](C)CC)NC(=O)[C@H](NC(=O)[C@H](NC(=O)[C@H](CCCN)NC(=O)[C@H]2CCCN2C(=O)[C@H](NC(=O)[C@@H](NC(=O)[C@@H](NC(=O)[C@H](NC(=O)CCCC(C)C)C(C)C)[C@@H](C)O)C(C)C)C(C)C)[C@@H](C)CC)[C@@H](C)OC(=O)[C@H](C(C)C)NC1=O [Compound 83, [Phe(4-Cl)^3]-KF]	1.84
C/C=C1\NC(=O)[C@H](Cc2ccccc2)NC(=O)[C@@H](C(C)C)NC(=O)[C@@H]([C@@H](C)CC)NC(=O)[C@H](NC(=O)[C@H](NC(=O)[C@H](CCCN)NC(=O)[C@H]2CCCN2C(=O)[C@H](NC(=O)[C@@H](NC(=O)[C@H](CCC(=O)O)NC(=O)[C@H](NC(=O)CCCC(C)C)C(C)C)C(C)C)C(C)C)[C@@H](C)CC)[C@@H](C)OC(=O)[C@H](C(C)C)NC1=O [Compound 115, [Glu^12]-KF] ({Hexanoyl(5-Me)}-[dV]EV[dV][dP][Orn][d(aIle)][d(aThr)][d(aIle)][dV]F[Dhb]V; ester 8-C)	5.92
C/C=C1\NC(=O)[C@H](Cc2ccccc2)NC(=O)[C@@H](C(C)C)NC(=O)[C@@H]([C@@H](C)CC)NC(=O)[C@H](NC(=O)[C@H](NC(=O)[C@H](CCCN)NC(=O)[C@H]2CCCN2C(=O)[C@H](NC(=O)[C@@H](NC(=O)[C@@H](NC(=O)[C@@H](CCCN)NC(=O)CCCC(C)C)[C@@H](C)O)C(C)C)C(C)C)[C@@H](C)CC)[C@@H](C)OC(=O)[C@H](C(C)C)NC1=O [Compound 118, [D-Orn^13]-KF]	6.7
C/C=C1\NC(=O)[C@H](Cc2ccccc2)NC(=O)[C@@H](C(C)C)NC(=O)[C@@H]([C@@H](C)CC)NC(=O)[C@H](NC(=O)[C@H](NC(=O)[C@H](CCCN)NC(=O)[C@H]2CCCN2C(=O)[C@H](NC(=O)[C@@H](NC(=O)[C@H](CC(C)C)NC(=O)[C@H](NC(=O)CCCC(C)C)C(C)C)C(C)C)C(C)C)[C@@H](C)CC)[C@@H](C)OC(=O)[C@H](C(C)C)NC1=O [Compound 113, [Leu^12]-KF] ({Hexanoyl(5-Me)}-[dV]LV[dV][dP][Orn][d(aIle)][d(aThr)][d(aIle)][dV]F[Dhb]V; ester 8-C)	6.71
